TARGET_UNDER_TEST: Nuclear receptor ROR-beta (Homo sapiens, UniProt Q92753)
Sequence (Q92753 whole entry): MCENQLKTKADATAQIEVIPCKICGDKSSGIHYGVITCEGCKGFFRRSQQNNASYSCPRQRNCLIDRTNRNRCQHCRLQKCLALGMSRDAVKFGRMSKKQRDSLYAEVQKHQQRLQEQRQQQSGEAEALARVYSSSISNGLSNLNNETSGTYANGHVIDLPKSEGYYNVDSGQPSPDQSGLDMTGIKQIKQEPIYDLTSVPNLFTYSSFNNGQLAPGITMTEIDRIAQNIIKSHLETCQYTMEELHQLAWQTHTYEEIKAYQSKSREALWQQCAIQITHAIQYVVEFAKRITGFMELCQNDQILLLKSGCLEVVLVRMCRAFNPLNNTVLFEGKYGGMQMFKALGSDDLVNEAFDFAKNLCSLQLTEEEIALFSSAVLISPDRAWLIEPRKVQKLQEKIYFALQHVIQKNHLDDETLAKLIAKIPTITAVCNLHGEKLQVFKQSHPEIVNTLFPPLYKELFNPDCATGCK
pIC50: −log10 of the molar value.
QUANTITY_NAME: pIC50

[ask] Which pIC50 reading was recorded for the molecule CCS(=O)(=O)c1ccc([C@@H](NC(C)=O)C(=O)Nc2cc(-c3cccnc3OCc3ccc(OC(F)(F)F)cc3)cs2)cc1 ?
[reply] < 5.00
